Experiment: viability gain of MRP-1-high H69AR cells under doxorubicin, pilot screen, MRP-1 activator project, CellTiter-Glo, duplicate (AID 807);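 further: compound pretreatment 18-22 h then 72 h combined with doxorubicin; 0% = doxorubicin alone and 100% = vehicle without doxorubicin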
Settings: H69AR viability with doxorubicin, CellTiter-Glo luminescence; at 10 µM; stronger effect = higher value
measured_property: viability increase (%)
Kindly answer with a numeric value in %, unit omitted.

# input compound: CC1=CCC2C(=O)N(c3ccc(C)c(Br)c3)C(=O)C2C1 (centres undefined) ; wanted: its viability increase
0.55

Which value of viability increase has been reported for `COc1ccc(-c2nnc(NC(=O)c3cc(Cl)ccc3Cl)o2)cc1` in the records?
-5.58

I am curious: what viability increase value has been reported for CCOC(=O)C1(c2csc(N)n2)COC(=O)C1 (centres undefined) ?
-0.78

Given `COc1ccccc1-n1c(SCC(=O)Nc2nnc(C)s2)nc2c(c1=O)SCC2` , state its recorded viability increase.
-3.7

Item under review: `O=c1cc(NCc2ccco2)c2ccccc2o1` . Reported viability increase?
-4.38

Which viability increase value belongs to CC(Sc1nc2ccccc2s1)C(=O)N1CCOCC1 (centres undefined) ?
-3.03

Give the measured viability increase of `O=C(CSc1nnnn1-c1cccc2c1CCCC2)N1CCOCC1` .
-3.02

Suppose we examine the compound `COc1ccc2cc3c(N)nn(C(=O)Cc4ccccc4OC)c3nc2c1` ; what viability increase value has been reported?
-8.54

Which viability increase is listed for O=C(O)CC12CSc3[nH]c(=O)sc3C1c1ccccc1OC2=O (centres undefined) ?
-2.73

May I ask what viability increase has been recorded for `O=C(c1cccc(C(=O)N2CCN(c3ccccc3F)CC2)c1)N1CCN(c2ccccc2F)CC1` ?
-2.61

Form field: reported viability increase of CCC(Sc1nc(C)cc(=O)[nH]1)C(=O)Nc1ccc(Cl)cn1 (centres undefined)
-3.4

# query: viability increase of entry COc1ccc2[nH]c(C)c(CCN3C(=O)C4CC=CCC4C3=O)c2c1 (centres undefined)
0.77

# viability increase lookup, item `C=C(C)Cn1c(CNC(C)=O)nc2ccccc21`
-0.52

Requested field: viability increase. Item: `CC(=O)Nc1nonc1-c1nc2ccccc2n1N(C(C)=O)C(C)=O`
-2.77

State the recorded viability increase for this entry: `CCS(=O)(=O)N1CCN(C(=O)c2cccs2)CC1`
-1.23

Bench note: what viability increase did `COc1ccc(Cn2c(=O)n(Cc3ccco3)c(=N)c3c4c(sc32)COC(C)(C)C4)cc1` show?
-5.35

Using the record for CCCC(NS(=O)(=O)c1ccc(OC)cc1)C(=O)O (centres undefined) , report its viability increase.
-1.16

Form field: reported viability increase of `Cc1ccc(C)c2c1sc(=NC(=O)CN1C(=O)CCC1=O)n2C`
-1.69

Quick one: viability increase for `O=C(Nc1ccc(Br)cc1Cl)c1cnccn1` ?
-0.71
